Origin of the recorded values: the Deep4Chem optical property database

Would you mind telling me the reported fluorescence lifetime of each entry?
run description: solvent given as SMILES
condition label: in CC#N
Provide the reading as a plain figure in ns.

Find the recorded fluorescence lifetime belonging to Cc1ccc(C2CC(c3ccc(O)cc3)=NN2c2ccc(S(N)(=O)=O)cc2)cc1 (configuration not stated) and report it.
2.32

Find the recorded fluorescence lifetime belonging to `O=C(O)c1ccc(-c2nc(-c3ccccc3)c3ccccn23)cc1` and report it.
1.5

Find the recorded fluorescence lifetime belonging to `COc1cccc2c1-c1ccccc1C2=O` and report it.
1.8

Find the recorded fluorescence lifetime belonging to `Cn1c(/C=C/c2ccc(/C=C/c3nc4ccccc4[nH]3)cc2)[n+](C)c2ccccc21` and report it.
1.16

Find the recorded fluorescence lifetime belonging to CCCCC1=Cc2c3ccc4cccc5ccc(c6cc(-c7ccccc7)n(c26)P1(=O)c1ccccc1)c3c45 (configuration not stated) and report it.
1.8

Find the recorded fluorescence lifetime belonging to `COc1c2ccccc2c(OC)c2c1c1cc(F)ccc1n2C` and report it.
25.3

Find the recorded fluorescence lifetime belonging to `NCCc1c[nH]c2ccc(O)cc12` and report it.
4.1

Find the recorded fluorescence lifetime belonging to `COc1ccc(-c2csc(/C(C#N)=C/c3c(Cl)cccc3Cl)n2)cc1` and report it.
4.07

Find the recorded fluorescence lifetime belonging to `CSc1ccc2c(c1)N(CCCN(C)C)c1ccccc1S2` and report it.
1.16

Find the recorded fluorescence lifetime belonging to `COc1c2ccccc2c(OC)c2c1c1c(F)cccc1n2C` and report it.
25.2

Find the recorded fluorescence lifetime belonging to `C(=C\c1nc2c3ccccc3c3ccccc3c2o1)/c1ccccc1` and report it.
1.83

Find the recorded fluorescence lifetime belonging to `C(#Cc1ccc(-n2c3ccccc3c3ccccc32)cc1)c1ccccc1` and report it.
4.36
